// data source = the supplement of paper PMC10567573

B1: STEAP1 (parent)
chain: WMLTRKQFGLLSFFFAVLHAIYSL

- Variants of: B1
- experiment description: protein stability index of a GFP-peptide fusion (GPS, HEK-293T) (PSI 1-6); higher = more stable;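 further: lentivirally expressed fusions sorted by FACS into six bins by GFP to DsRed ratio, PSI derived from sequencing read proportions per bin multiplied by bin number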
- setup conditions: c terminus: a fixed tail appended
Returns true (1) if the recorded protein stability index is greater than or equal to 2, and false (0) otherwise.

Exam item: decide whether the reported protein stability index for L24K is at least 2. true (1)

Record: F14C true (1)
